# tgt: Luciferin 4-monooxygenase (Photinus pyralis) (UniProt P08659)
# Sequence (P08659 whole entry, looked up): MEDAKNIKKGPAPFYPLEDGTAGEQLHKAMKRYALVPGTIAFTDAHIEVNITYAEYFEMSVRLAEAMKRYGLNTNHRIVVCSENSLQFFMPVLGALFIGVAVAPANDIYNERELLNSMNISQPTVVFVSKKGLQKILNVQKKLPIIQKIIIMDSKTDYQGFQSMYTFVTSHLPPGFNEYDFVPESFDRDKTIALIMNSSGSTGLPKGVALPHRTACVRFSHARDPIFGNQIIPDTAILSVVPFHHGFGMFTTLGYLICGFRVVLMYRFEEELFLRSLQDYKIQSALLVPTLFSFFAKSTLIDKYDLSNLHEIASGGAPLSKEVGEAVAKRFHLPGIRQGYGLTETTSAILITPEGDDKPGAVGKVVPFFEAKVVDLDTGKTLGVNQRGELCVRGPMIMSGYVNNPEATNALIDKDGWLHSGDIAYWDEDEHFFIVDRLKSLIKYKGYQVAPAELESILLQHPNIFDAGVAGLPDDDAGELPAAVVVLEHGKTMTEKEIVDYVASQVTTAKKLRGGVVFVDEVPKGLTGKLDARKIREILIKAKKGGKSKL
# experiment: Natriuretic polypeptide receptor (hNpr1) antagonism - Confirmation firefly luciferase (FLuc) inhibition counterscreen
# conditions: purified FLuc enzyme, luminescence, Km substrate; series mostly up to 57.6 µM
About 10 (0.7%) of roughly 1,400 compounds were called active. Roughly 2% stayed inconclusive and do not appear here. This is one part of a sample in which actives are shown more often than they occur.
readout.kind: outcome

input.smiles | readout.kind | assay.result
COc1ccc(-c2noc(CC3CCN(C(=O)CC4CCCCC4)CC3)n2)cc1 | outcome | inactive
COc1cccc(NC(=O)Cn2c(N(C)Cc3ccccc3)nc(C)cc2=O)c1 | outcome | inactive
Cc1ccc(C(=O)N2CCN(c3cc(-c4ccc(Cl)cc4)[nH]n3)CC2)c(C)c1 | outcome | inactive
COc1ccc(-c2noc(CC3CCN(C(=O)Cc4ccc(C)cc4)CC3)n2)cc1 | outcome | inactive
O=C(c1cc(F)ccc1Cl)N1CCN(c2cc(-c3ccc(F)cc3)[nH]n2)CC1 | outcome | inactive

Source listed as PubChem BioAssay AID1347047.
